# experimental-target: T1, human GPRC5D (G protein-coupled receptor class C group 5 member D), on cells (human, UniProt Q9NZD1 1-345)
# T1 construct: whole, on cells; also called hGPRC5D
# T1 sequence (Q9NZD1 whole entry): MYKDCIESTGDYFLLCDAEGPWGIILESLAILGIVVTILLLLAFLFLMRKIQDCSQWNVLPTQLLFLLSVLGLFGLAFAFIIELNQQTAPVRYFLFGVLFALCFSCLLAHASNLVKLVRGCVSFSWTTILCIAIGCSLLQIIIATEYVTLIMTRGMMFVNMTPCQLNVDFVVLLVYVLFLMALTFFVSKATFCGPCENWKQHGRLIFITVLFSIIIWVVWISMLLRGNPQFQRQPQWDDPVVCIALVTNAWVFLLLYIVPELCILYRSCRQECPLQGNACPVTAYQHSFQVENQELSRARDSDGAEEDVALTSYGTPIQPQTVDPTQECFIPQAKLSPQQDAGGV
# protocol-summary: FACS on MM.1R multiple myeloma cells
// reported EC50 per item
Respond with the bare value in mg/L.

[
  {
    "binder": "humanized antibody 9D7 (hz) (antibody, V domains shown) VH: QVQLQESGPGLVKPSETLSLTCTVSGYSITSDYAWNWIRQPPGKGLEWMGYISYSGSATYSPSLKSRITISRDTSKNQFSLKLSSVTAADTAVYYCARGGIAGRGRWGAMDYWGQGTTVTVSS VL: DIQMTQSPSSLSASVGDRVTITCKASQNVGTNVAWYQQKPGQSPKALIYSASYRDSGVPDRFSGSGSGTDFTLTISSLQPEDFATYYCQQYKSYPLTFGQGTRLEIKR",
    "EC50, mg/L": 0.09
  },
  {
    "binder": "humanized antibody 26D1 (hz) (antibody, V domains shown) VH: QVQLVQSGAEVKKPGASVKVSCKASGYTFTSYTIQWIKQAPGQGLEWIGYIIPSSGYTNYNQKFKDKATLTADKSSNTAYMELSSLTSEDTAVYYCANNYGNWGFTYWGQGTTVTVSS VL: DIQMTQSPSTLSASVGDRVTITCKASQNVGSAVTWYQQKPGKAPRLLIYSASNRYTGVPDRFSGSGSGTEFTLTISSLQPDDFATYFCQQYSNYPLTFGQGTRLEIKR",
    "EC50, mg/L": 0.571
  },
  {
    "binder": "humanized antibody 24F5 (hz) (antibody, V domains shown) VH: QVQLVQSGAEVKKPGASVKVSCKASGYTFPYYVMHWVRQAPGQGLEWIGYINPYNDGTKYNEKFKGRATLTSDKSTSTAYMELSSLRSEDTAVYYCARGGVRRYFDYWGQGTTVTVSS VL: DIQMTQSPSTLSASVGDRVTITCRASQDIGSNLNWLQQKPGGTIKRLIYATSSLDSGVPSRFSGSRSGSEYTLTISSLQPDDFATYYCLQYATFPYTFGQGTRLEIKR",
    "EC50, mg/L": 0.0682
  }
]

Could you now look at the following binder, please?
Consider the binder humanized antibody 6E97 (hz) (antibody, V domains shown) VH: QVQLVQSGAEVKKPGASVKVSCKASGYTFPYYVIHWVRQAPGQGLEWIGYINPYNAGTKYNEKFKGRATLTSDKSTSTAYMELSSLRSEDTAVYYCARGGVRRYFDYWGQGTTVTVSS VL: DIQLTQSPSTLSASVGDRVTITCRASQDIGSNLNWLQQKPGGTIKRLISATSSLDSGVPSRFSGSRSGSEYTLTISSLQPDDFATYYCLQYATFPYTFGQGTRLEIKR . State its measured EC50.
0.146

Data origin: patent US20260085114A1
